Test system: MCF7
run_description: Antiproliferative activity against human MCF7 cells assessed as reduction in cell optical density incubated for 48 hrs by MTT assay
Assay type: functional, cell-based
condition_context: MCF7, 48 h
reported_endpoint: pIC50
Give bare numbers, as −log10 of the molar value.

Previously resolved entries follow.
* Fc1cccc(Nc2ccnc3cc(OCCCCCOc4ccc5c(Nc6cccc(F)c6)ccnc5c4)ccc23)c1 | 5.30
* COc1cccc(Nc2ccnc3cc(OCCCCOc4ccc5c(Nc6cccc(OC)c6)ccnc5c4)ccc23)c1 | 4.33

Here is another compound to look at.
**Q:** Return reported pIC50; argument: Fc1cccc(Nc2ccnc3cc(OCCCCOc4ccc5c(Nc6cccc(F)c6)ccnc5c4)ccc23)c1
**A:** 5.17

----------
System: MCF7
run_description: Antiproliferative activity against human MCF7 cells assessed as reduction in cell optical density incubated for 48 hrs by MTT assay
Type: functional, cell-based
condition_context: MCF7, 48 h
reported_endpoint: pIC50
One number for each entry, as −log10 of the molar value.

Previously resolved entries follow.
* CN1CCN(c2ccnc3cc(OCCCCCCOc4ccc5c(N6CCN(C)CC6)ccnc5c4)ccc23)CC1 | 4.35
* CN1CCN(c2ccnc3cc(OCCCCCOc4ccc5c(N6CCN(C)CC6)ccnc5c4)ccc23)CC1 | 5.22
* FC(F)(F)Oc1cccc(Nc2ccnc3cc(OCCCCCOc4ccc5c(Nc6cccc(OC(F)(F)F)c6)ccnc5c4)ccc23)c1 | 4.42
* COc1cccc(Nc2ccnc3cc(OCCCCCCOc4ccc5c(Nc6cccc(OC)c6)ccnc5c4)ccc23)c1 | 5.26

Here is another compound to look at.
**Q:** Return reported pIC50; argument: COc1cccc(Nc2ccnc3cc(OCCCCCOc4ccc5c(Nc6cccc(OC)c6)ccnc5c4)ccc23)c1
**A:** 5.51

----------
Could you please report measured pIC50 for the items listed next?
Test system: A549
run_description: Antiproliferative activity against human A549 cells assessed as reduction in cell optical density incubated for 48 hrs by MTT assay
Assay type: functional, cell-based
condition_context: A549, 48 h
One number for each entry, as −log10 of the molar value.

• COc1cccc(Nc2ccnc3cc(OCCCCOc4ccc5c(Nc6cccc(OC)c6)ccnc5c4)ccc23)c1 = 3.85

Please give pIC50 for each item listed below.
1. CN1CCN(c2ccnc3cc(OCCCCCCOc4ccc5c(N6CCN(C)CC6)ccnc5c4)ccc23)CC1
2. Fc1cccc(Nc2ccnc3cc(OCCCCCOc4ccc5c(Nc6cccc(F)c6)ccnc5c4)ccc23)c1
3. FC(F)(F)Oc1cccc(Nc2ccnc3cc(OCCCCOc4ccc5c(Nc6cccc(OC(F)(F)F)c6)ccnc5c4)ccc23)c1

**A:**
1. 6.48
2. 5.59
3. 5.56

----------
Tested on: Ca-Ski
run_description: Antiproliferative activity against ATG7 deficient human Ca Ski cells assessed as inhibition of cell viability incubated for 24 hrs by CCK8 assay
Type: functional, cell-based
reported_endpoint: IC50 (µM)
Numbers only, in µM.

**Q:** Return reported IC50; argument: COc1cccc(Nc2ccnc3cc(OCCCCCOc4ccc5c(Nc6cccc(OC)c6)ccnc5c4)ccc23)c1
**A:** 2.89

----------
System: A549
run_description: Antiproliferative activity against human A549 cells assessed as reduction in cell optical density incubated for 48 hrs by MTT assay
Type: functional, cell-based
condition_context: A549, 48 h
pIC50: −log10 of the molar value.
Label t when pIC50 is at or above 6; anything below gets f.

**Q:** Reported pIC50 reaches at least 6 for COc1cccc(Nc2ccnc3cc(OCCCCCOc4ccc5c(Nc6cccc(OC)c6)ccnc5c4)ccc23)c1 ?
**A:** f

**Q:** Another compound to check: FC(F)(F)Oc1cccc(Nc2ccnc3cc(OCCCCCCOc4ccc5c(Nc6cccc(OC(F)(F)F)c6)ccnc5c4)ccc23)c1
**A:** t

**Q:** Another compound to check: COc1cccc(Nc2ccnc3cc(OCCCCCCOc4ccc5c(Nc6cccc(OC)c6)ccnc5c4)ccc23)c1
**A:** f

**Q:** Another compound to check: CN1CCN(c2ccnc3cc(OCCCCCOc4ccc5c(N6CCN(C)CC6)ccnc5c4)ccc23)CC1
**A:** f

**Q:** Another compound to check: Fc1cccc(Nc2ccnc3cc(OCCCCOc4ccc5c(Nc6cccc(F)c6)ccnc5c4)ccc23)c1
**A:** f

**Q:** Another compound to check: CN1CCN(c2ccnc3cc(OCCCCOc4ccc5c(N6CCN(C)CC6)ccnc5c4)ccc23)CC1
**A:** f
